# System: Yellow Fever Mosquito (Aedes aegypti, AEDSAE)
# Assay type: in vivo
# conditions: about 1 day-old larvae, 96-well plate from 4000 ppm DMSO master, 3 days at room temperature
readout type: YFM % Control (or Mortality) rating

Incoming: Please look at N#CC1(NC(=O)c2cc(NC(=O)[C@H]3[C@H](c4ccc(C(F)F)cc4)C3(Cl)Cl)ccc2Cl)CC1 (relative stereo) and tell me its recorded YFM % Control (or Mortality) rating on Yellow Fever Mosquito (Aedes aegypti, AEDSAE).
Outgoing: A (80-100)

Incoming: # assay system Yellow Fever Mosquito (Aedes aegypti, AEDSAE): give YFM % Control (or Mortality) rating of O=C(N[C@@H]1CON(CC(F)(F)F)C1=O)c1cc(NC(=O)C2C(c3cc(Cl)cc(Cl)c3)C2(Cl)Cl)ccc1Cl (some centres unmarked)
Outgoing: A (80-100)

Incoming: Fill in YFM % Control (or Mortality) rating for O=C(NC1CCSC1=O)c1cc(NC(=O)C2C(c3cc(Cl)cc(Cl)c3)C2(Cl)Cl)ccc1Cl (centres unmarked) tested with Yellow Fever Mosquito (Aedes aegypti, AEDSAE).
Outgoing: A (80-100)

###

# System: Beet Armyworm (Spodoptera exigua, LAPHEG)
# method: Bioassay on Beet Armyworm (BAW), 128-well diet tray assay
# Assay type: in vivo
# conditions: 168 h, 50 μg/cm^2 on artificial diet, second instar larvae, 25° C., five to seven days, average of eight wells, read-out: BAW % Control (or Mortality) rating
What mortality at 50 µg/cm2 was measured for each of the following?

Please review the entries below; each comes with its answer.
Incoming: Note mortality at 50 µg/cm2 for the compound shown: N#CC1(NC(=O)c2cc(NC(=O)[C@H]3[C@H](c4cccc(C(F)(F)F)c4)C3(Cl)Cl)ccc2Cl)CC1 (relative stereo)
Outgoing: 50 to 100%

Incoming: Read the entry O=C(N[C@@H]1CON(CC(F)(F)F)C1=O)c1cc(NC(=O)C2C(c3ccc(Cl)c(Cl)c3)C2(Cl)Cl)ccc1Cl (stereo in doubt) and write its reported mortality at 50 µg/cm2.
Outgoing: 50 to 100%

Incoming: Give the reported value of mortality at 50 µg/cm2 for this record: O=C(NC1CCC(F)(F)CC1)c1cc(NC(=O)[C@H]2[C@H](c3cc(Cl)cc(Cl)c3)C2(Cl)Cl)ccc1Cl (relative stereo)
Outgoing: 50 to 100%

Incoming: Entry N#CC1(NC(=O)c2cc(NC(=O)[C@@H]3[C@@H](c4cc(Cl)c(Cl)c(Cl)c4)C3(Cl)Cl)ccc2Cl)CC1 needs its mortality at 50 µg/cm2 filled in; supply it.
Outgoing: 50 to 100%

Incoming: Give recorded mortality at 50 µg/cm2. O=C(NN1CCOCC1)c1cc(NC(=O)[C@H]2[C@H](c3cc(Cl)cc(Cl)c3)C2(Cl)Cl)ccc1Cl (relative stereo)
Outgoing: 50 to 100%

Incoming: Annotate the compound N#CC1(NC(=O)c2cc(NC(=O)[C@H]3[C@H](c4cc(Cl)c(Cl)c(Cl)c4)C3(Cl)Cl)ccc2Cl)CC1 (relative stereo) [Molecule F10] with its measured mortality at 50 µg/cm2.
Outgoing: 50 to 100%

Incoming: // fetch mortality at 50 µg/cm2 given entry N#CC1(NC(=O)c2cc(NC(=O)[C@H]3[C@H](c4cccc(C(F)F)c4)C3(Cl)Cl)ccc2Cl)CC1 (relative stereo)
Outgoing: 50 to 100%

Incoming: Quickly give me recorded mortality at 50 µg/cm2 for N#CC1(NC(=O)c2cc(NC(=O)[C@H]3[C@H](c4cc(Cl)cc(C(F)F)c4)C3(Cl)Cl)ccc2Cl)CC1 (relative stereo)
Outgoing: 50 to 100%

Incoming: Name the recorded mortality at 50 µg/cm2 of the compound listed here: O=C(NC1CSC1)c1cc(NC(=O)[C@H]2[C@H](c3cc(Cl)c(Cl)c(Cl)c3)C2(Cl)Cl)ccc1Cl (relative stereo)
Outgoing: 50 to 100%

Incoming: Using the record for N#CC1(NC(=O)c2cc(NC(=O)[C@H]3[C@H](c4cc(C(F)(F)F)cc(C(F)(F)F)c4)C3(Cl)Cl)ccc2Cl)CC1 (relative stereo) , state its measured mortality at 50 µg/cm2.
Outgoing: 50 to 100%

Okay, here is my list. What is mortality at 50 µg/cm2 for each of these?
1. O=C(NC1CC(F)(F)C1)c1cc(NC(=O)[C@H]2[C@H](c3cccc(C(F)(F)F)c3)C2(Cl)Cl)ccc1Cl (relative stereo)
2. O=C(NC1CCSC1)c1cc(NC(=O)[C@H]2[C@H](c3cc(Cl)cc(Cl)c3)C2(Cl)Cl)ccc1Cl (relative stereo)

Outgoing:
["50 to 100%", "50 to 100%"]

###

Give mortality at 50 µg/cm2 for every item shown.
# System: Beet Armyworm (Spodoptera exigua, LAPHEG)
# method: Bioassay on Beet Armyworm (BAW), 128-well diet tray assay
# Format: in vivo
# conditions: 168 h, 50 μg/cm^2 on artificial diet, second instar larvae, 25° C., five to seven days, average of eight wells, read-out: BAW % Control (or Mortality) rating
# Experimental: Certain molecules disclosed in this document were tested against BAW and CL using procedures described in the following examples. In the reporting of the results, the “BAW & CL Rating Table” was used (See Table Section). Bioassays on BAW were conducted using a 128-well diet tray assay. […] Percent mortality was recorded for the larvae in each well; activity in the eight wells was then averaged. […]

Observe how each entry below is paired with its result.
Incoming: Give mortality at 50 µg/cm2 for the following compound: C[C@]1(c2cc(Cl)cc(Cl)c2)[C@H](C(=O)Nc2ccc(Cl)c(C(=O)NC3CC(F)(F)C3)c2)C1(Cl)Cl (relative stereo) [Molecule F61]
Outgoing: 50 to 100%

Incoming: Assign mortality at 50 µg/cm2 to the following record: N#CC1(NC(=O)c2cc(NC(=O)[C@H]3[C@H](c4cc(Cl)cc(C(F)(F)F)c4)C3(Cl)Cl)ccc2Cl)CC1 (relative stereo) [Molecule F27]
Outgoing: 50 to 100%

Hi! Can you tell me mortality at 50 µg/cm2 for each of these compounds?
1. O=C(NC1CC(F)(F)C1)c1cc(NC(=O)[C@H]2[C@H](c3cc(Cl)cc(Br)c3)C2(Cl)Cl)ccc1Cl (relative stereo) [PF8]
2. O=C(NC1CCOC1=O)c1cc(NC(=O)C2C(c3cc(Cl)cc(Cl)c3)C2(Cl)Cl)ccc1Cl (stereo not drawn) [PF37]
3. N#CC1CCC(NC(=O)c2cc(NC(=O)[C@H]3[C@H](c4cc(Cl)c(Cl)c(Cl)c4)C3(Cl)Cl)ccc2Cl)C1 (relative stereo) [Molecule F39]
4. N#CC1(NC(=O)c2cc(NC(=O)[C@H]3[C@H](c4cc(Br)cc(Br)c4)C3(Cl)Cl)ccc2Cl)CC1 (relative stereo) [Molecule F29]

Outgoing:
1. 50 to 100%
2. 50 to 100%
3. 50 to 100%
4. 50 to 100%

###

Provide the recorded mortality at 50 µg/cm2 for the entries that follow.
# Test system: Cabbage Looper (Trichoplusia ni, TRIPNI)
# method: Bioassay on Cabbage Looper (CL), 128-well diet tray assay
# Format: in vivo
# conditions: 168 h, 50 μg/cm^2 on artificial diet, second instar larvae, 25° C., five to seven days, average of eight wells, read-out: CL % Control (or Mortality) rating

Reference set, count: 2
Incoming: Note mortality at 50 µg/cm2 for the molecule shown: O=C(NC1CC1)c1cccc(NC(=O)[C@H]2[C@H](c3cc(Cl)cc(Cl)c3)C2(Cl)Cl)c1 (relative stereo) [Molecule F3]
Outgoing: 50 to 100%

Incoming: Look up and state reported mortality at 50 µg/cm2 for O=C(NN1CCOC1=O)c1cc(NC(=O)C2C(c3cc(Cl)cc(Cl)c3)C2(Cl)Cl)ccc1Cl (stereo not drawn) [PF34]
Outgoing: 50 to 100%

Please turn your attention to the following entry.
Incoming: Provide one value: measured mortality at 50 µg/cm2 of CN(C(=O)c1cc(NC(=O)[C@H]2[C@H](c3cc(Cl)c(Cl)c(Cl)c3)C2(Cl)Cl)ccc1Cl)C1CC(F)(F)C1 (relative stereo) [Molecule F34]
Outgoing: 50 to 100%

###

# Test system: Beet Armyworm (Spodoptera exigua, LAPHEG)
# method: Bioassay on Beet Armyworm (BAW), 128-well diet tray assay
# Assay type: in vivo
# conditions: 168 h, 50 μg/cm^2 on artificial diet, second instar larvae, 25° C., five to seven days, average of eight wells, read-out: BAW % Control (or Mortality) rating
readout type: mortality at 50 µg/cm2

Incoming: State mortality at 50 µg/cm2 (Beet Armyworm (Spodoptera exigua, LAPHEG)) of N#CC1(NC(=O)c2cc(NC(=O)C3C(c4ccc(Cl)c(Cl)c4)C3(Cl)Cl)ccc2Cl)CCC1 (centres unmarked) [Molecule F14] .
Outgoing: 50 to 100%

Incoming: State recorded mortality at 50 µg/cm2 with Beet Armyworm (Spodoptera exigua, LAPHEG), entry O=C(NN1CC(CN2CCOCC2)OC1=O)c1cc(NC(=O)C2C(c3cc(Cl)cc(Cl)c3)C2(Cl)Cl)ccc1Cl (centres unmarked) [PF41] , no comment.
Outgoing: 0 to 50%

Record mortality at 50 µg/cm2 per entry; entries follow.
1. CN(C(=O)c1cc(NC(=O)[C@H]2[C@H](c3cc(Cl)c(Cl)c(Cl)c3)C2(Cl)Cl)ccc1Cl)C1CC(F)(F)C1 (relative stereo) [Molecule F34]
2. O=C(NC1CC(F)(F)C1)c1cc(NC(=O)[C@H]2[C@H](c3ccc(F)c(Cl)c3)C2(Cl)Cl)ccc1Cl (relative stereo) [PF7]
3. O=C1CCC(NC(=O)c2cc(NC(=O)[C@H]3[C@H](c4cc(Cl)cc(Cl)c4)C3(Cl)Cl)ccc2Cl)CC1 (relative stereo) [Molecule F65]
4. O=C(NC1CC1)c1cccc(NC(=O)[C@H]2[C@H](c3cc(Cl)cc(Cl)c3)C2(Cl)Cl)c1 (relative stereo) [Molecule F3]

Outgoing:
1. 50 to 100%
2. 50 to 100%
3. 0 to 50%
4. 50 to 100%

Provide the reported mortality at 50 µg/cm2 of each entry below, same order.
1. O=C1CCC(NC(=O)c2cc(NC(=O)[C@H]3[C@H](c4ccc(F)c(Cl)c4)C3(Cl)Cl)ccc2Cl)CC1 (relative stereo) [Molecule F81]
2. N#Cc1cc(Cl)cc([C@H]2[C@H](C(=O)Nc3ccc(Cl)c(C(=O)NC4(C#N)CC4)c3)C2(Cl)Cl)c1 (relative stereo) [Molecule F78]

Outgoing:
1: 50 to 100%; 2: 50 to 100%
